Every entry's value here was drawn from patent US20210038559A1.

Test system: MHC-I expression by COLO 205 cells
Test: cells
Assay type: cell-based, human
Conditions: Homo sapiens, COLO 205, 48 h, MHC-I expression, COLO 205 cells, compounds at 35 μM, 48 hours, flow cytometry (W6/32); read-out: Induction Fold
Here the recorded fold induction at 35 µM is given for each entry.
measure: fold induction at 35 µM

compound: O=C(Oc1ccc2ccccc2c1)c1nn(-c2ccccc2F)c2ccccc12
experimental.value: 1.21
//
compound: NC(=O)[C@H](Cc1ccccc1)NC(=O)c1nn(CCCCCF)c2ccccc12
experimental.value: 1.72
//
compound: CCCCCCCCC(C)(C)c1ccc([C@H]2CCC[C@@H](O)C2)c(O)c1 (relative stereo)
experimental.value: 0.49
//
compound: CC(C)[C@H](NC(=O)c1cn(Cc2ccc(F)cc2)c2ccccc12)C(N)=O
experimental.value: 1.7
//
compound: CC(C)[C@H](NC(=O)c1cn(CCCCCF)c2ccccc12)C(N)=O
experimental.value: 1.35
//
compound: O=C(NCC1CC1)c1cn(CCCCCF)c2ccccc12
experimental.value: 1.03
//
compound: COc1cccc2c(C(=O)N[C@@H]3C(C)(C)[C@@H]4CC[C@@]3(C)C4)cn(CCN3CCOCC3)c12
experimental.value: 3.06
//
compound: C/C(=C\C(=O)c1cn(CCN2CCOCC2)c2ccccc12)C(C)(C)C
experimental.value: 2.25
